Tested on: MDA-MB-231
protocolSummary: Cytotoxicity against human MDA-MB-231 cells at 10 uM by SRB assay
Type: functional
measuredProperty: growth, % of control at 10 µM (%)

[
  {
    "structureSmiles": "CC(=O)OC[C@H]1O[C@@H](n2cc(-c3cc(-c4ccccc4)no3)c(=O)[nH]c2=O)C[C@@H]1OC(C)=O",
    "measuredProperty": "growth, % of control at 10 µM",
    "reported": 95
  },
  {
    "structureSmiles": "CC(C)(C)c1ccc(-c2cc(-c3cn([C@H]4C[C@H](O)[C@@H](CO)O4)c(=O)[nH]c3=O)on2)cc1",
    "measuredProperty": "growth, % of control at 10 µM",
    "reported": 102
  },
  {
    "structureSmiles": "CCCCc1ccc(-c2cc(-c3cn([C@H]4C[C@H](OC(C)=O)[C@@H](COC(C)=O)O4)c(=O)[nH]c3=O)on2)cc1",
    "measuredProperty": "growth, % of control at 10 µM",
    "reported": 72.2
  },
  {
    "structureSmiles": "CC(=O)OC[C@H]1O[C@@H](n2cc(-c3cn(Cc4ccc(C(C)(C)C)cc4)nn3)c(=O)[nH]c2=O)C[C@@H]1OC(C)=O",
    "measuredProperty": "growth, % of control at 10 µM",
    "reported": 105
  }
]
